Numbers sourced from the supplement of paper PMC11451515.

test system: P12-Ichikawa; assay: cell viability relative to DMSO control; higher = less cytotoxic; settings: HPLM + 10% dialyzed FBS; 48 h; 46.1 µM
// assign yes (1) if cell viability falls strictly below 50%, else no (0) (ties count as no (0))

Query block: Strictly below 50%: is that where cell viability of `COc1ccc2c(c1)c(CC(=O)OCC(=O)O)c(C)n2C(=O)c1ccc(Cl)cc1` sits?
Result block: no (0)

Query block: Strictly below 50%: is that where cell viability of `O=C(O)CCn1c2c(c3ccccc31)C[C@H](N[S+](=O)([O-])c1ccc(F)cc1)CC2` sits?
Result block: no (0)

Query block: Strictly below 50%: is that where cell viability of `CC(C)c1ccc(Cn2ccc3c4c(N)nc(NC5CC5)nc4ccc32)cc1` sits?
Result block: yes (1)

Query block: Strictly below 50%: is that where cell viability of `NC(=O)c1cccc2cn(-c3ccc([C@@H]4CCCNC4)cc3)nc12` sits?
Result block: yes (1)

---

Can you tell me cell viability for the items I'm about to list?
test system: SEM cells; assay: cell viability relative to DMSO control; higher = less cytotoxic; details: HPLM + 10% dialyzed FBS; 48 h; 0.569 µM
State the value with its unit after it.

Solved entries (count: 6):
compound	cell viability
COc1ccc([C@@H]2CC(=O)c3c(O)cc(O[C@@H]4O[C@H](CO[C@@H]5O[C@@H](C)[C@H](O)[C@@H](O)[C@H]5O)[C@@H](O)[C@H](O)[C@H]4O)cc3O2)cc1O	110%
CC[C@]12\C=C/CN3CC[C@]4([C@@H](N(C)C5=CC(=C(C=C45)[C@]6(C[C@H]7C[C@H](CN(C7)CC8=C6[NH]C9=C8C=CC=C9)C(C)(F)F)C(=O)OC)OC)[C@](O)([C@@H]1OC(C)=O)C(=O)OC)[C@H]23	22%
CC(O)(C#Cc1ccc2c(c1)N(c1nc(N)ncc1Cl)CC2)c1nccs1 (configuration not stated)	109%
C[S+](=O)([O-])c1ccc(C(=O)Nc2ccc(Cl)c(-c3ccccn3)c2)c(Cl)c1	131%
CC1(C)CNc2cc(NC(=O)c3cccnc3NCc3ccncc3)ccc21	92.4%
CC[C@@]1(O)C(=O)OC\C2=C1\C=C\3N(CC4=C3N=C5C=CC=CC5=C4)C2=O	7.26%

# ---- query compound ----
Query block: Fill blank: measured cell viability of the compound `COc1cccc([C@@H](C)NCCCc2ccccc2Cl)c1` is ____.
Result block: 81.8%

---

tested on: NOMO1; assay: cell viability relative to DMSO control; higher = less cytotoxic; details: HPLM + 10% dialyzed FBS; 48 h; 1.71 µM
measure: cell viability (%)
Answers are plain numbers, in %.

Solved entries (count: 2):
molecular-string	unit-abbreviation	cell viability
COc1cc([C@H]2Oc3cc([C@H]4Oc5cc(O)cc(O)c5C(=O)[C@@H]4O)ccc3O[C@@H]2CO)ccc1O	%	95.9
CC1(C)CNc2cc(NC(=O)c3cccnc3NCc3ccncc3)ccc21	%	113

# ---- query compound ----
Query block: Fill blank: measured cell viability of the compound `CO/C1=C/C(C)=C\[C@@H](C)[C@@H](O)[C@@H](C)C/C(C)=C\C=C/[C@H](OC)[C@@H]([C@@H](C)[C@@H](O)[C@H](C)[C@@]2(O)C[C@@H](O)[C@H](C)[C@@H](C(C)C)O2)OC1=O` is ____.
Result block: 11.1
